Molecular target: Y650A/A654Q/Y658V triple CBPKIX mutant (UniProt P45481 586-672, Y650A | A654Q | Y658V)
Sequence (P45481 586-672 Y650A/A654Q/Y658V): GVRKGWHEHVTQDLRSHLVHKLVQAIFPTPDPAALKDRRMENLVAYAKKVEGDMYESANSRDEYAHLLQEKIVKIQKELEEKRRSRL
Test: ITC
assay_readout: Kd (µM)
Give the value in µM but do not write µM after it.

What the record says about PGYPNGLLSGDEDFSSIADMDFSALLSQISS (peptide, UniProt Q04206 521-551, looked up) [transactivation domain 1 (TA1) of the p65 subunit of NF-κB, residues 521–551, L523Y] : Kd is 13
